# remaining at 10 min, 0.5 µM per record follows
- Assay Notes: Metabolic stability in rat liver microsomes assessed as parent compound remaining at 0.5 uM after 10 mins
- Assay type: ADME
- Measurement Setup: read-out: Stability

Smiles Record | Result Unit | remaining at 10 min, 0.5 µM
Cc1noc(C)c1[C@@H]1C[C@@](C)(c2cc(NC(=O)c3ccc(Cl)cn3)cc(F)c2F)N=C(N)S1 | % | 63
COc1cnc(C(=O)Nc2cc(F)c(F)c([C@]3(C)C[C@@H](c4c(C)noc4C)SC(N)=N3)c2)cn1 | % | 69
Cc1noc(C)c1[C@@H]1C[C@@](C)(c2cccc(NC(=O)c3ccc(Cl)cn3)c2F)N=C(N)S1 | % | 43
Cc1noc(C)c1[C@@H]1C[C@@](C)(c2cc(-c3cncnc3)c(F)cc2F)N=C(N)S1 | % | 49
Cc1noc(C)c1[C@@H]1C[C@@](C)(c2cc(F)cc(NC(=O)c3ccc(Cl)cn3)c2)N=C(N)S1 | % | 26
Cc1noc(C)c1[C@@H]1C[C@@](C)(c2cc(NC(=O)c3ccc(Cl)cn3)c(F)cc2F)N=C(N)S1 | % | 76

* * *

- Assay Notes: Plasma protein binding in rat at 1 to 10 mg/kg, po measured at 5 hrs post dose
- Type: ADME, organism-based
- Measurement Setup: read-out: PPB (converted)

Smiles Record | fraction unbound at 5 h
Cc1noc(C)c1[C@@H]1C[C@@](C)(c2cc(N)cc(F)c2F)N=C(N)S1 | 0.05

* * *

- Target Or System: Beta-secretase 1 (Homo sapiens, UniProt P56817)
- Sequence (P56817 whole entry): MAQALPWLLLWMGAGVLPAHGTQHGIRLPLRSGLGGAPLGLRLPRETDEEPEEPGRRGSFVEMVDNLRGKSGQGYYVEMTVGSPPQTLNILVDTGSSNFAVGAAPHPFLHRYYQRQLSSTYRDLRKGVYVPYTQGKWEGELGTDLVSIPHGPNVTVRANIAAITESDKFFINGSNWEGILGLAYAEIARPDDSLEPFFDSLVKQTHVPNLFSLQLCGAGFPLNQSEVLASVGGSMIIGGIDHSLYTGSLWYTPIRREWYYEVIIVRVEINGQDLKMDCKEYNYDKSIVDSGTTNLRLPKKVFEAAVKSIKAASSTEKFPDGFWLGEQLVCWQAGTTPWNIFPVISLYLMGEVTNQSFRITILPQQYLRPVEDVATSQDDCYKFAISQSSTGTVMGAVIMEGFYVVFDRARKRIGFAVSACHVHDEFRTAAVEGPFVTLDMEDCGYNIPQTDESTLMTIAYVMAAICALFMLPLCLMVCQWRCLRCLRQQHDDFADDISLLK
- Assay Notes: Inhibition of BACE1 in human H4 cells expressing APP751 Swedish mutant assessed as inhibition of amyloid beta 40 or amyloid beta 42 production incubated for 19 hrs by microplate reader analysis
IC50: recorded values

Molecule | Result Unit | IC50
Cc1noc(C)c1[C@@H]1C[C@@](C)(c2cccc(NC(=O)c3ccc(Cl)cn3)c2F)N=C(N)S1 | nM | 160
COc1ccc([C@@H]2C[C@@H](c3cc(-c4cncnc4)c(F)cc3F)N=C(N)S2)cc1OC | nM | 290
Cc1noc(C)c1[C@@H]1C[C@@](C)(c2cc(NC(=O)c3ccc(Cl)cn3)c(F)cc2F)N=C(N)S1 | nM | 31
Cc1noc(C)c1[C@@H]1C[C@@](C)(c2cc(NC(=O)c3ccc(Cl)cn3)cc(F)c2F)N=C(N)S1 | nM | 0.7
Cc1oncc1[C@]1(C)C[C@@H](c2cc(-c3cncnc3)c(F)cc2F)N=C(N)S1 (racemic) | nM | 180
Cc1noc(C)c1[C@]1(C)C[C@@H](c2cc(-c3cncnc3)c(F)cc2F)N=C(N)S1 (relative stereo) | nM | 3700
Cc1noc(C)c1[C@@H]1C[C@@H](c2cc(NC(=O)c3ccc(Cl)cn3)ccc2F)N=C(N)S1 | nM | 5
COc1ccc([C@@H]2C[C@@H](c3cccc(-c4cncnc4)c3)N=C(N)S2)cc1OC | nM | 1100
Cc1noc(C)c1[C@@H]1C[C@@H](c2cc(-c3cncnc3)c(F)cc2F)N=C(N)S1 | nM | 70
COc1cnc(C(=O)Nc2cc(F)c(F)c([C@]3(C)C[C@@H](c4c(C)noc4C)SC(N)=N3)c2)cn1 | nM | 0.9
Cc1noc(C)c1[C@@H]1C[C@@](C)(c2cc(F)cc(NC(=O)c3ccc(Cl)cn3)c2)N=C(N)S1 | nM | 2.3
